Origin of measurements: paper PMC3107159

Target: T1, OhrR (Sinorhizobium meliloti Rm1021 (S. …, UniProt Q92MX6 1-138))
T1 sequence: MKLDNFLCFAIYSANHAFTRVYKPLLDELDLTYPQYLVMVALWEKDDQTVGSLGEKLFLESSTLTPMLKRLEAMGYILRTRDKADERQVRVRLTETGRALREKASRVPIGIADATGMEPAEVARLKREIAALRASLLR
Assay: EMSA; 1 mM DTT; 20 mM Tris-HCl pH 8.0, 50 mM KCl, 1 mM EDTA, 50 uM BSA, room temperature 10 min, 20 ul; 20 pmol DNA, 0-100 pmol OhrR; 6% PAGE in Tris-borate, SYBR gold; 1 mM DTT in Fig 3C
Settings: protein: recombinant; tags: C-terminal 6xHis (pET22b+); chain copies: 2; label: none (SYBR gold stain); blunt

{"BINDER": "Mut1 60 bp (GC to AA in motif 1) (dsDNA) DNA 1: GGGGGGGAAGCTAGTCACCAAAAATTAATTTTGCGATACTAGAGAGATGCATATGGGGGG DNA 2: CCCCCCATATGCATCTCTCTAGTATCGCAAAATTAATTTTTGGTGACTAGCTTCCCCCCC", "binding result": "no binding"}
{"BINDER": "M2 60 bp (dsDNA) DNA 1: GGGGGGGAAGCTAGTCACCGCAAATTGCTTTGCCGATACTAGAGAGATGCATATGGGGGG DNA 2: CCCCCCATATGCATCTCTCTAGTATCGGCAAAGCAATTTGCGGTGACTAGCTTCCCCCCC", "binding result": "binds"}
{"BINDER": "Mut2 60 bp (AAA to CCC in motif 1) (dsDNA) DNA 1: GGGGGGGAAGCTAGTCACCGCCCCTTAATTTTGCGATACTAGAGAGATGCATATGGGGGG DNA 2: CCCCCCATATGCATCTCTCTAGTATCGCAAAATTAAGGGGCGGTGACTAGCTTCCCCCCC", "binding result": "no binding"}
{"BINDER": "M1 60 bp (dsDNA) DNA 1: GGGGGGGAAGCTAGTCACCGCAAATTAATTTTGCGATACTAGAGAGATGCATATGGGGGG DNA 2: CCCCCCATATGCATCTCTCTAGTATCGCAAAATTAATTTGCGGTGACTAGCTTCCCCCCC", "binding result": "binds"}
